B1: TPR t1 (parent)
chain: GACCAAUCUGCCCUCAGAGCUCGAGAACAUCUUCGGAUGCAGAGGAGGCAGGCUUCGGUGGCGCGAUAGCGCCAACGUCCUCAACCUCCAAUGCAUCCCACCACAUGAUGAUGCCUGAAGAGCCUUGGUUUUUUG

- Variants of: B1
- protocol-summary: polymerase ribozyme fitness, log enrichment relative to wild type (log ratio); higher = more active; in vitro selection for triplet polymerase activity
// reported polymerase ribozyme fitness (log ratio) per item

{"mutation-descriptor": "C22U C64U", "polymerase ribozyme fitness (log ratio)": -3.81}
{"mutation-descriptor": "A84U U109G", "polymerase ribozyme fitness (log ratio)": -4.27}
{"mutation-descriptor": "U33C A46G C64G C86A C115G", "polymerase ribozyme fitness (log ratio)": -5.34}
{"mutation-descriptor": "C102A G128A", "polymerase ribozyme fitness (log ratio)": -4.69}
{"mutation-descriptor": "A6U C86U C88A A121U", "polymerase ribozyme fitness (log ratio)": 0.522}
{"mutation-descriptor": "U92A C123A", "polymerase ribozyme fitness (log ratio)": -3.22}
{"mutation-descriptor": "G57A A103G", "polymerase ribozyme fitness (log ratio)": -4.05}
{"mutation-descriptor": "C98A C114U C123G U131C", "polymerase ribozyme fitness (log ratio)": -5.24}
{"mutation-descriptor": "G44U G51A", "polymerase ribozyme fitness (log ratio)": -5.35}
{"mutation-descriptor": "C11G C49A C64U", "polymerase ribozyme fitness (log ratio)": -0.24}
{"mutation-descriptor": "C13U A83C U112C", "polymerase ribozyme fitness (log ratio)": 1.79}
